Experiment: small molecules captured by biotinylated probe aFST – biochemical, small-molecule microarray, fluorescence 635/667, stem cell growth factor project, primary screen (AID 1086);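 note: score merges 667 nm fluorescence with signal-to-noise of each printed compound spot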
Settings: higher = more signal
MEASUREMENT_LABEL: composite z-score
Returns: the value as a bare number; no unit string appended.

Look over these answered cases.
CCCCCN1CC=CC23O[C@@H]4C=CCCOC(=O)C4[C@H]2C(=O)N(CCCCCCO)[C@@H]3C1=O (stereo partly drawn)
-0.658
CCOC(=O)C1=C[C@@H](c2ccccc2)N(S(=O)(=O)c2ccc(C)cc2)[C@H]1c1ccc(OC)cc1
1.14

Tell us which composite z-score value is on record for COCC(=C=CC[C@H](O)c1ccccc1OCCO)C[C@H](O)c1ccccn1
0.0547
